For each entry below, report its inhibition value.
- TARGET OF ASSAY: Protein kinase C alpha type (Homo sapiens) (UniProt P17252)
- CONDITION LABEL: at 0.1 µM
Give bare numbers, in %.

STRUCTURE SMILES STRING: Cn1c(-c2nonc2N)nc2cnccc21
TARGET OF ASSAY: Protein kinase C alpha type (Homo sapiens) (UniProt P17252)
RESULT UNIT: %
inhibition: 0.48
//
STRUCTURE SMILES STRING: NS(=O)(=O)c1cccc(N/C=C2\C(=O)Nc3ccccc32)c1
TARGET OF ASSAY: Protein kinase C alpha type (Homo sapiens) (UniProt P17252)
RESULT UNIT: %
inhibition: 0.98
//
STRUCTURE SMILES STRING: Cc1c2ccc(N(C)c3ccnc(Nc4cccc(S(N)(=O)=O)c4)n3)cc2nn1C
TARGET OF ASSAY: Protein kinase C alpha type (Homo sapiens) (UniProt P17252)
RESULT UNIT: %
inhibition: -2.47
//
STRUCTURE SMILES STRING: Fc1ccc(Nc2nccc(-c3c(-c4ccc(C(F)(F)F)cc4)nn4ncccc34)n2)cc1F
TARGET OF ASSAY: Protein kinase C alpha type (Homo sapiens) (UniProt P17252)
RESULT UNIT: %
inhibition: 1.5

Report value: inhibition, system: Protein kinase C alpha type (Homo sapiens) (UniProt P17252), molecule: CS(=O)(=O)CCNCc1ccc(-c2ccc3ncnc(Nc4ccc(OCc5ccccc5)cc4)c3c2)o1;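 also: each value is the mean percent inhibition of PKC-alpha kinase activity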
0.5

---

- TARGET OF ASSAY: Sphingosine kinase 2 (Homo sapiens)
- CONDITION LABEL: at 1 µM
- Description: GSK_PKIS: SPHK2 mean inhibition at 1 uM [Nanosyn]
ATTRIBUTE MEASURED: inhibition

STRUCTURE SMILES STRING: Cn1c(-c2nonc2N)nc2cnccc21
OBS VALUE: 0.16%
--
STRUCTURE SMILES STRING: Cc1cc(O)cc(C)c1/C=C/c1cncc(C(N)=O)c1
OBS VALUE: 0.47%
--
STRUCTURE SMILES STRING: COc1cc(N2CCN(C(C)C)CC2)ccc1Nc1nc(Nc2cccc(F)c2C(=O)O)c2cc[nH]c2n1
OBS VALUE: -0.33%
--
STRUCTURE SMILES STRING: CN1CCC(n2cnc(-c3ccc(F)cc3)c2-c2ccnc(NCCO)n2)CC1
OBS VALUE: -1.92%
--
STRUCTURE SMILES STRING: CNC(=O)c1sc(-n2cnc3cc(OC)c(OC)cc32)cc1OCc1ccccc1C(F)(F)F
OBS VALUE: -1.5%

Report inhibition for every entry below.
1. CS(=O)(=O)CCNCc1ccc(-c2ccc3ncnc(Nc4ccc(OCc5cccc(C(F)(F)F)c5)cc4)c3c2)o1
2. Fc1ccc(Nc2nccc(-c3c(-c4ccc(C(F)(F)F)cc4)nn4ncccc34)n2)cc1F

["0.04%", "-0.13%"]

---

- TARGET OF ASSAY: Serine/threonine-protein kinase 4 (Homo sapiens) (UniProt Q13043);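 also: mean inhibition of MST1, part of the GSK PKIS dataset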
- Sequence (whole entry): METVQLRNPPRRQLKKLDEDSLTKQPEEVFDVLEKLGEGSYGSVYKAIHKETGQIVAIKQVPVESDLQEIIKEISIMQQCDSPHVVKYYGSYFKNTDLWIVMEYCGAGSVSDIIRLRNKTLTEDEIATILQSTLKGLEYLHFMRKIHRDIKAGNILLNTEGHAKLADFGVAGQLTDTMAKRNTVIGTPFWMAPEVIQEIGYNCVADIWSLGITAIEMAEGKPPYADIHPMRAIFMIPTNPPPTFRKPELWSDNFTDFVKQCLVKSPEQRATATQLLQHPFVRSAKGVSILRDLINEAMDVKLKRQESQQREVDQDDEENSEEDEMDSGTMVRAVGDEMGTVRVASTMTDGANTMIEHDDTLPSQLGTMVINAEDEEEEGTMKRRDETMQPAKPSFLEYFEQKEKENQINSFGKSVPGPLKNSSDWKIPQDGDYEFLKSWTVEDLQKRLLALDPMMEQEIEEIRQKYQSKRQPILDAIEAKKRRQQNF
- CONDITION LABEL: at 1 µM
ATTRIBUTE MEASURED: inhibition (%)
Give bare numbers, in %.

COMPOUND: COc1cc(N2CCN(C(C)C)CC2)ccc1Nc1nc(Nc2cccc(F)c2C(=O)O)c2cc[nH]c2n1
OBS VALUE: 9.21
--
COMPOUND: CCCNc1cccc(-n2ncc3c(N/N=C/c4ccncc4)ncnc32)c1
OBS VALUE: 12.3
--
COMPOUND: COC(=O)Nc1nc2ccc(Oc3ccc(NC(=O)Nc4cc(C(F)(F)F)ccc4F)cc3)cc2s1
OBS VALUE: -1.63

Report inhibition for every entry below.
1. FC(F)(F)CNc1nccc(-c2cnn3ncccc23)n1
2. CS(=O)(=O)Nc1ccc(-c2cc(-c3ccccc3)cc(C(N)=O)c2N)cc1
3. O=C(Nc1n[nH]c2nnc(-c3cccnc3)cc12)C1CC1
4. CC1=C(C(=O)Nc2ccc3[nH]ncc3c2)C(c2ccc(F)cc2)N=C(c2ccc(C(F)(F)F)nc2)N1 (stereo not given)
5. CC1(C)CC(n2cnc(-c3ccc(F)cc3)c2-c2ccnc(N)n2)CC(C)(C)N1
6. COc1cccc(-n2ncc3c(N/N=C/c4ccc(C(=O)NCCN(C)C)cc4)ncnc32)c1
7. NS(=O)(=O)c1ccc(N/N=C2\C(=O)Nc3ccc(C(=O)NCc4ccncc4)cc32)cc1

3.82
0.83
-0.48
2.27
-0.15
10.1
76.1

---

For each record, write down the corresponding inhibition.
- TARGET OF ASSAY: Sphingosine kinase 2 (Homo sapiens) (UniProt Q9NRA0)
- Sequence (whole entry): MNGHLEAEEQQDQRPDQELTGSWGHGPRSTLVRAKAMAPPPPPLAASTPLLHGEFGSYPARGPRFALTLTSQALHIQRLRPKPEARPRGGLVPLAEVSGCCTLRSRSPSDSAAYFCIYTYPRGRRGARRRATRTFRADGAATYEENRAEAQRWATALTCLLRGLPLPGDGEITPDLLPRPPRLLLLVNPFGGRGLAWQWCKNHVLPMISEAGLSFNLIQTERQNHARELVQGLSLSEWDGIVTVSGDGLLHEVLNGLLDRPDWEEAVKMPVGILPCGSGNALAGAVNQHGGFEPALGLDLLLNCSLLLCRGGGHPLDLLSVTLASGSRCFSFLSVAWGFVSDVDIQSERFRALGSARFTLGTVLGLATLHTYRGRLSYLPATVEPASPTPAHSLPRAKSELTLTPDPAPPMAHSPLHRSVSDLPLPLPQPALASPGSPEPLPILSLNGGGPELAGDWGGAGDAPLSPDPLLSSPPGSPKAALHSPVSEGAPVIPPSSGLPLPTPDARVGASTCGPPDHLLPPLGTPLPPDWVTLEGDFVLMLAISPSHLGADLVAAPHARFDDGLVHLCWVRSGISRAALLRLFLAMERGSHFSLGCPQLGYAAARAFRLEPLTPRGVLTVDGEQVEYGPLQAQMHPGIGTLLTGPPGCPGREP
- CONDITION LABEL: at 1 µM
Numbers only, in %.

STRUCTURE SMILES STRING: CC1(C)CC(n2cnc(-c3ccc(F)cc3)c2-c2ccnc(N)n2)CC(C)(C)N1
TARGET OF ASSAY: Sphingosine kinase 2 (Homo sapiens) (UniProt Q9NRA0)
OBS VALUE: -2.43

STRUCTURE SMILES STRING: COc1cccc(Nc2nccc(-c3cnn4ncccc34)n2)c1
TARGET OF ASSAY: Sphingosine kinase 2 (Homo sapiens) (UniProt Q9NRA0)
OBS VALUE: -1.48

STRUCTURE SMILES STRING: COc1cc2c(cc1Nc1nc(Nc3cccc(F)c3C(N)=O)c3cc[nH]c3n1)N(C(=O)CN1CCN(C(C)C)CC1)CC2
TARGET OF ASSAY: Sphingosine kinase 2 (Homo sapiens) (UniProt Q9NRA0)
OBS VALUE: -0.67

STRUCTURE SMILES STRING: COc1cc(Nc2ncc(-c3ccccc3)o2)cc(OC)c1
TARGET OF ASSAY: Sphingosine kinase 2 (Homo sapiens) (UniProt Q9NRA0)
OBS VALUE: -0.57

// fetch inhibition given entry COC(=O)Nc1nc2ccc(Oc3ccc(NC(=O)Nc4cc(C(F)(F)F)ccc4F)cc3)cc2s1
-0.44

---

- TARGET OF ASSAY: Tyrosine-protein kinase JAK3 (Homo sapiens) (UniProt P52333)
- Sequence (P52333 whole entry): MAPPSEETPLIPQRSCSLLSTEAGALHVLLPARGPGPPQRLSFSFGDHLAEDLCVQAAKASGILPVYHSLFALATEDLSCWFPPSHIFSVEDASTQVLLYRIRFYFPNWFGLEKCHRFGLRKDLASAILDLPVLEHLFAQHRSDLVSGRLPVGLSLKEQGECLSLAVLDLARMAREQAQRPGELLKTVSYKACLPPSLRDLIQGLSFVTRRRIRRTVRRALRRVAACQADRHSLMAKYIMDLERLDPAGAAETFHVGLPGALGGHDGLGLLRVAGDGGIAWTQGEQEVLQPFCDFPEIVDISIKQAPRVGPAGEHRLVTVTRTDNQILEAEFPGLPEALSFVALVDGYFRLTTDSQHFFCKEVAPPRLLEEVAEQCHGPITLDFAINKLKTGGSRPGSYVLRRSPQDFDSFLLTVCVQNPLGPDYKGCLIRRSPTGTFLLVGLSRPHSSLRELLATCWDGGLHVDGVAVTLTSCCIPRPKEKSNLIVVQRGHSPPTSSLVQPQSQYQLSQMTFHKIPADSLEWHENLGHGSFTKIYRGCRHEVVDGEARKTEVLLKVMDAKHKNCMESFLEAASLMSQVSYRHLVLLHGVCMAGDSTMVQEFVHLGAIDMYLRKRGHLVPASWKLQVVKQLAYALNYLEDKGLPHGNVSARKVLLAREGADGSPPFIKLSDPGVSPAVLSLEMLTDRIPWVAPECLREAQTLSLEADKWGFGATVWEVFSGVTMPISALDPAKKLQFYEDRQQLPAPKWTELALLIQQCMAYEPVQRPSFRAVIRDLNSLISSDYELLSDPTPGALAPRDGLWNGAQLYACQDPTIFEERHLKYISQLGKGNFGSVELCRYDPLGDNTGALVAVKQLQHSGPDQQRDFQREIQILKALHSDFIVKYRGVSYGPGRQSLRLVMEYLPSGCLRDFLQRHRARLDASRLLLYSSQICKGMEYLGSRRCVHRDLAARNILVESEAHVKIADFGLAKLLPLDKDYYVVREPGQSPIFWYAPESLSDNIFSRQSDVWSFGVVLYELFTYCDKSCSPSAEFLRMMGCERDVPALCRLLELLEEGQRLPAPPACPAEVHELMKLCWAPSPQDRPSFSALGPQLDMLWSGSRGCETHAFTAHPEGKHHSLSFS
- CONDITION LABEL: at 0.1 µM
ATTRIBUTE MEASURED: inhibition (%)
Answers are plain numbers, in %.

Sample records with inhibition:
STRUCTURE SMILES STRING: CCN1CCC(C(=O)Nc2n[nH]c3nnc(-c4cccc(F)c4F)cc23)CC1
TARGET OF ASSAY: Tyrosine-protein kinase JAK3 (Homo sapiens) (UniProt P52333)
ATTRIBUTE MEASURED: inhibition
OBS VALUE: 0.12
//
STRUCTURE SMILES STRING: CS(=O)(=O)Nc1ccc(-c2cc(-c3ccccc3)cc(C(N)=O)c2N)cc1
TARGET OF ASSAY: Tyrosine-protein kinase JAK3 (Homo sapiens) (UniProt P52333)
ATTRIBUTE MEASURED: inhibition
OBS VALUE: -0.01
//
STRUCTURE SMILES STRING: CN(C)CCNC(=O)Nc1ccc(N(C)c2ccnc(Nc3ccc(CS(C)(=O)=O)cc3)n2)cc1
TARGET OF ASSAY: Tyrosine-protein kinase JAK3 (Homo sapiens) (UniProt P52333)
ATTRIBUTE MEASURED: inhibition
OBS VALUE: -1.47
//
STRUCTURE SMILES STRING: CS(=O)(=O)CCNCc1ccoc1-c1ccc2ncnc(Nc3ccc(OCc4ccccc4)cc3)c2c1
TARGET OF ASSAY: Tyrosine-protein kinase JAK3 (Homo sapiens) (UniProt P52333);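 also: values reported are mean percent inhibition of JAK3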
ATTRIBUTE MEASURED: inhibition
OBS VALUE: -0.19

Specify reported inhibition for the molecule shown: COc1ccc(-c2nn3ncccc3c2-c2ccnc(Nc3ccc(F)c(F)c3)n2)cc1
-1.36
